- Tested on: A549 lung cell carcinoma
- Assay name: Relative colony forming efficiency (Example 17, Table 13)
- Type: cell-based, human
- Condition details: averages of 2-8 determinations
Oligonucleotides are written 5' to 3', each unit as a sugar letter and its base; * is a phosphorothioate linkage, no mark a phosphodiester; rarer units and linkages stand in square brackets, end groups in braces. Plain capitals give the bases only. d = 2'-deoxy (DNA)
Field: Reduced relative colony forming efficiency, A549 (% inhibition of colony forming ability). Provide a value for each of the sequences that follow.
Express the result in % but write the number alone.

# query: Reduced relative colony forming efficiency, A549 (% inhibition of colony forming ability) of entry ATGGAAAAAAAAAATCAGCC (antisense dA*dT*dG*dG*dA*dA*dA*dA*dA*dA*dA*dA*dA*dA*dT*dC*dA*dG*dC*dC) [AS-II-1390-20] 88.31

# query: Reduced relative colony forming efficiency, A549 (% inhibition of colony forming ability) of entry CGCGCGCTCCCGGCCCTTCC (listed as DNA, chemistry not fully specified) [AS-II-75-20] 60.08

# query: Reduced relative colony forming efficiency, A549 (% inhibition of colony forming ability) of entry TTAGTCTTTCCTTCCAGTGA (antisense dT*dT*dA*dG*dT*dC*dT*dT*dT*dC*dC*dT*dT*dC*dC*dA*dG*dT*dG*dA) [AS-II-1254-20] 36.74

# query: Reduced relative colony forming efficiency, A549 (% inhibition of colony forming ability) of entry CTGCTTTAGTTTTCGGCTCC (antisense dC*dT*dG*dC*dT*dT*dT*dA*dG*dT*dT*dT*dT*dC*dG*dG*dC*dT*dC*dC) [AS-II-362-20] 61.81

# query: Reduced relative colony forming efficiency, A549 (% inhibition of colony forming ability) of entry TTCTGGCAAAAGGTGATACT (antisense dT*dT*dC*dT*dG*dG*dC*dA*dA*dA*dA*dG*dG*dT*dG*dA*dT*dA*dC*dT) [AS-II-1538-20] 90.34

# query: Reduced relative colony forming efficiency, A549 (% inhibition of colony forming ability) of entry GCACATCTTCAGTTCATTTA (antisense dG*dC*dA*dC*dA*dT*dC*dT*dT*dC*dA*dG*dT*dT*dC*dA*dT*dT*dT*dA) [AS-II-1362-20] 83.9

# query: Reduced relative colony forming efficiency, A549 (% inhibition of colony forming ability) of entry TCTGCCTTCTTCTTGACACA (antisense dT*dC*dT*dG*dC*dC*dT*dT*dC*dT*dT*dC*dT*dT*dG*dA*dC*dA*dC*dA) [AS-II-798-20] 70.49

# query: Reduced relative colony forming efficiency, A549 (% inhibition of colony forming ability) of entry GCAAAGGCTACAACACGTTC (antisense dG*dC*dA*dA*dA*dG*dG*dC*dT*dA*dC*dA*dA*dC*dA*dC*dG*dT*dT*dC) [AS-II-861-20] 95.78

# query: Reduced relative colony forming efficiency, A549 (% inhibition of colony forming ability) of entry TTCTCTTACTCTCTCCTCCG (antisense dT*dT*dC*dT*dC*dT*dT*dA*dC*dT*dC*dT*dC*dT*dC*dC*dT*dC*dC*dG) [AS-II-1048-20] 65.67

# query: Reduced relative colony forming efficiency, A549 (% inhibition of colony forming ability) of entry GAGAAATAAAATGAAACGGC (antisense dG*dA*dG*dA*dA*dA*dT*dA*dA*dA*dA*dT*dG*dA*dA*dA*dC*dG*dG*dC) [AS-II-2164-20] 91.15

# query: Reduced relative colony forming efficiency, A549 (% inhibition of colony forming ability) of entry CGGCGGCGTGTT (antisense dC*dG*dG*dC*dG*dG*dC*dG*dT*dG*dT*dT) [AS-II-288-12] 70.49

# query: Reduced relative colony forming efficiency, A549 (% inhibition of colony forming ability) of entry GGGCACATCTTCAGTTCATT (antisense dG*dG*dG*dC*dA*dC*dA*dT*dC*dT*dT*dC*dA*dG*dT*dT*dC*dA*dT*dT) [AS-II-1364-20] 95.59

# query: Reduced relative colony forming efficiency, A549 (% inhibition of colony forming ability) of entry CGCGCTCCCGGCCC (antisense dC*dG*dC*dG*dC*dT*dC*dC*dC*dG*dG*dC*dC*dC) [AS-II-79-14] 79.17

# query: Reduced relative colony forming efficiency, A549 (% inhibition of colony forming ability) of entry AAGCGGCGGGGGTTTTCTCT (antisense dA*dA*dG*dC*dG*dG*dC*dG*dG*dG*dG*dG*dT*dT*dT*dT*dC*dT*dC*dT) [AS-II-414-20] 12.44

# query: Reduced relative colony forming efficiency, A549 (% inhibition of colony forming ability) of entry CCTTGCCCTGAGAGATTCCT (antisense dC*dC*dT*dT*dG*dC*dC*dC*dT*dG*dA*dG*dA*dG*dA*dT*dT*dC*dC*dT) [AS-II-2083-20] 90.65

# query: Reduced relative colony forming efficiency, A549 (% inhibition of colony forming ability) of entry CCTGTCTTCTATCTGGCACC (antisense dC*dC*dT*dG*dT*dC*dT*dT*dC*dT*dA*dT*dC*dT*dG*dG*dC*dA*dC*dC) [AS-II-1989-20] 83.9

# query: Reduced relative colony forming efficiency, A549 (% inhibition of colony forming ability) of entry GGAAGATGACAAAGCGGCGG (antisense dG*dG*dA*dA*dG*dA*dT*dG*dA*dC*dA*dA*dA*dG*dC*dG*dG*dC*dG*dG) [AS-II-425-20] 57.38

# query: Reduced relative colony forming efficiency, A549 (% inhibition of colony forming ability) of entry TCAGAGGGGGCAGAGAATCC (antisense dT*dC*dA*dG*dA*dG*dG*dG*dG*dG*dC*dA*dG*dA*dG*dA*dA*dT*dC*dC) [AS-II-2044-20] 25.55

# query: Reduced relative colony forming efficiency, A549 (% inhibition of colony forming ability) of entry ATGGTACTCGATGGGGAAGA (chemistry not given here) [AS-II-439-20] 76.46

# query: Reduced relative colony forming efficiency, A549 (% inhibition of colony forming ability) of entry GACACAAGGCATCGTTTCAA (antisense dG*dA*dC*dA*dC*dA*dA*dG*dG*dC*dA*dT*dC*dG*dT*dT*dT*dC*dA*dA) [AS-II-784-20] 83.8

# query: Reduced relative colony forming efficiency, A549 (% inhibition of colony forming ability) of entry GGCGACCCCTCACTCCAGCA (antisense dG*dG*dC*dG*dA*dC*dC*dC*dC*dT*dC*dA*dC*dT*dC*dC*dA*dG*dC*dA) [AS-II-114-20] 83.51

# query: Reduced relative colony forming efficiency, A549 (% inhibition of colony forming ability) of entry GGGAGAGCATAGTGGAGGCG (antisense dG*dG*dG*dA*dG*dA*dG*dC*dA*dT*dA*dG*dT*dG*dG*dA*dG*dG*dC*dG) [AS-II-185-20] 71.51

# query: Reduced relative colony forming efficiency, A549 (% inhibition of colony forming ability) of entry GCGGCGGGGGTTTTCTCTCA (antisense dG*dC*dG*dG*dC*dG*dG*dG*dG*dG*dT*dT*dT*dT*dC*dT*dC*dT*dC*dA) [AS-II-412-20] 43.78

# query: Reduced relative colony forming efficiency, A549 (% inhibition of colony forming ability) of entry ATCCAGCGCAAGGCCCAGTC (antisense dA*dT*dC*dC*dA*dG*dC*dG*dC*dA*dA*dG*dG*dC*dC*dC*dA*dG*dT*dC) [AS-II-816-20] 78.4
